The entries below come with measured IC50 values attached.
# target-entity: human AOC3 enzyme (Homo sapiens (Human), UniProt Q16853)
# Sequence (Q16853 whole entry): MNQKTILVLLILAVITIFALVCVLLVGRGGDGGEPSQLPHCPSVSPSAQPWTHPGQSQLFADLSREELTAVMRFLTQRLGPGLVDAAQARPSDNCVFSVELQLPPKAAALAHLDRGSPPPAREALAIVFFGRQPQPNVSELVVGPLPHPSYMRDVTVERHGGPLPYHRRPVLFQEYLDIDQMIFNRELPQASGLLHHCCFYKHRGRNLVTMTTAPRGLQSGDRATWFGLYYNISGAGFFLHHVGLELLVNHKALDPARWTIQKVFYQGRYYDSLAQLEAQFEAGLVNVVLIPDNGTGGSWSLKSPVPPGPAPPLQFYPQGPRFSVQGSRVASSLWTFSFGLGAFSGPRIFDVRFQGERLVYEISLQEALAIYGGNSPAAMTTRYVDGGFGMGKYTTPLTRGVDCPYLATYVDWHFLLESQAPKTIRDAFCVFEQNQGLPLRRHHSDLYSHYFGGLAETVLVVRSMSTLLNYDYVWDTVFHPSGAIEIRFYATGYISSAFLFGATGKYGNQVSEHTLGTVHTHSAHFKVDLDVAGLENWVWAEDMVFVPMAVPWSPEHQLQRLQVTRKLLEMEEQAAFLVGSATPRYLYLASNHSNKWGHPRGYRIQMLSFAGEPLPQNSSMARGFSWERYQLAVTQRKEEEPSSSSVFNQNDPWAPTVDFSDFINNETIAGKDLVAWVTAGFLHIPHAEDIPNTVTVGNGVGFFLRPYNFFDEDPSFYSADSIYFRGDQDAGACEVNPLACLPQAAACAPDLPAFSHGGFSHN
# assay-comment: AOC3 biochemical assay (MAO-Glo)
# experimental-parameters: read-out: AOC3 IC50
Counter-ions that a name gives are not always drawn.

molecule: NC/C(=C\F)COc1ccc(S(=O)(=O)N2CCC(O)CC2)cn1.O=C(O)C(F)(F)F
IC50 / nM: 10
//
molecule: CN(C(N)=O)C1CCN(S(=O)(=O)c2ccc(OC/C(=C/F)CN)nc2)CC1
IC50 / nM: 37
//
molecule: NC/C(=C\F)COc1ccc(S(=O)(=O)N2CCC(C(=O)N3CCOCC3)(c3ccccc3)CC2)cn1
IC50 / nM: 39
//
molecule: CN(C)C(=O)CC1CCN(S(=O)(=O)c2ccc(OC/C(=C/F)CN)nc2)CC1
IC50 / nM: 30
//
molecule: CC(F)(F)CNC(=O)C1CCN(S(=O)(=O)c2ccc(OC/C(=C/F)CN)nc2)CC1
IC50 / nM: 11
//
molecule: NC/C(=C\F)COc1ccc(S(=O)(=O)N2CC(C(N)=O)C2)cn1
IC50 / nM: 21
//
molecule: NC/C(=C\F)COc1ccc(S(=O)(=O)N2CCC(N3CCNC3=O)CC2)cn1
IC50 / nM: 49
//
molecule: CNC(=O)NC1CCN(S(=O)(=O)c2ccc(OC/C(=C/F)CN)nc2)CC1
IC50 / nM: 37
//
molecule: CC1(O)CN(S(=O)(=O)c2ccc(OC/C(=C/F)CN)nc2)C1
IC50 / nM: 37
//
molecule: CC(C)(O)C1CN(S(=O)(=O)c2ccc(OC/C(=C/F)CN)nc2)C1
IC50 / nM: 45
//
molecule: NC/C(=C\F)COc1ccc(S(=O)(=O)N2CCC(C(=O)NC3CC3)CC2)cn1
IC50 / nM: 19
//
molecule: CNC(=O)[C@@]12C[C@@H]1CN(S(=O)(=O)c1ccc(OC/C(=C/F)CN)nc1)C2
IC50 / nM: 25
//
molecule: CN(C)C(=O)C1CN(S(=O)(=O)c2ccc(OC/C(=C/F)CN)nc2)C1
IC50 / nM: 42
//
molecule: NC/C(=C\F)COc1ccc(S(=O)(=O)N2C[C@@H]3[C@H](C2)[C@H]3C(=O)O)cn1
IC50 / nM: 391
//
molecule: NC/C(=C\F)COc1ccc(S(=O)(=O)N2CC[C@H](O)C2)cn1
IC50 / nM: 38
//
molecule: CCNC(=O)C1CCN(S(=O)(=O)c2ccc(OC/C(=C/F)CN)nc2)CC1
IC50 / nM: 12
//
molecule: COCCN(C)C(=O)[C@H]1[C@@H]2CN(S(=O)(=O)c3ccc(OC/C(=C/F)CN)nc3)C[C@@H]21
IC50 / nM: 18
//
molecule: NC/C(=C\F)COc1ccc(S(=O)(=O)N2CCC(F)(F)C2)cn1
IC50 / nM: 16
//
molecule: COC(=O)C1CCN(S(=O)(=O)c2ccc(OC/C(=C/F)CN)nc2)CC1 [Example 51, trifluoroacetate]
IC50 / nM: 13
//
molecule: NC/C(=C\F)COc1ccc(S(=O)(=O)N2CC[C@H](C(=O)N3CCOCC3)C2)cn1
IC50 / nM: 36
//
molecule: NC/C(=C\F)COc1ccc(S(=O)(=O)N2CCC(C(N)=O)CC2)cn1
IC50 / nM: 8
//
molecule: NC/C(=C\F)COc1ccc(S(=O)(=O)N2CC(F)(F)C2)cn1
IC50 / nM: 15
//
molecule: CC1(C(=O)NC2CCOCC2)CCN(S(=O)(=O)c2ccc(OC/C(=C/F)CN)nc2)CC1 [Example 58, trifluoroacetate]
IC50 / nM: 114
//
molecule: NC/C(=C\F)COc1ccc(S(=O)(=O)N2CCC(C(=O)NCCO)CC2)cn1
IC50 / nM: 18
//
molecule: COC1CN(S(=O)(=O)c2ccc(OC/C(=C/F)CN)nc2)C1
IC50 / nM: 20
//
molecule: CC(=O)N1CC(C2CCN(S(=O)(=O)c3ccc(OC/C(=C/F)CN)nc3)CC2)C1
IC50 / nM: 41
//
molecule: COC(=O)CC1CCN(S(=O)(=O)c2ccc(OC/C(=C/F)CN)nc2)CC1
IC50 / nM: 11
//
molecule: CC1(O)CCN(S(=O)(=O)c2ccc(OC/C(=C/F)CN)nc2)CC1
IC50 / nM: 24
//
molecule: NC/C(=C\F)COc1ccc(S(=O)(=O)N2CC[C@@H](O)C2)cn1
IC50 / nM: 67
//
molecule: NC/C(=C\F)COc1ccc(S(=O)(=O)N2CCC(C(=O)N3CCOCC3)CC2)cn1
IC50 / nM: 52
//
molecule: COC1CCN(S(=O)(=O)c2ccc(OC/C(=C/F)CN)nc2)CC1
IC50 / nM: 10
//
molecule: COC1CCN(S(=O)(=O)c2ccc(OC/C(=C/F)CN)nc2)C1.O=C(O)C(F)(F)F (stereo not drawn)
IC50 / nM: 26
//
molecule: COC(=O)[C@H]1[C@@H]2CN(S(=O)(=O)c3ccc(OC/C(=C/F)CN)nc3)C[C@@H]21
IC50 / nM: 9
